Reported melting point values for the following molecules.

Name the recorded melting point of the item OC[C@H]1CCCN1c1nc(-c2ccco2)c2cc[nH]c2n1 [Example 6] in your answer. 174.8 to 175.6 °C

Name the recorded melting point of the item CN(C)c1nc(-c2ccco2)c2ccn(C(=O)c3ccccc3)c2n1 [Example 5] in your answer. 108.3 to 109.1 °C

Name the recorded melting point of the item COc1ccc(CNc2nc(-c3ccco3)c3cc[nH]c3n2)cc1OC [Example 7] in your answer. 154.8 to 154.9 °C

====

PROPERTY_LABEL: melting point

Solved entries:
CN(C)c1nc(-c2ccco2)c2ccn(Cc3ccccc3F)c2n1: 115.1 to 115.2 °C
Clc1nc(-c2ccco2)c2cc[nH]c2n1: 265.8 to 266.3 °C
CN(C)c1nc(-c2ccco2)c2cc[nH]c2n1: 196.9 to 197.1 °C

In the following, a different compound is considered.
Name the recorded melting point of the item CN(C)c1nc(-c2ccco2)c2ccn(Cc3ccccc3)c2n1 in your answer. 91.7 to 92.3 °C
